Sourced from patent US20260008775A1

The following compounds are shown together with reported pEC50 values.
# System: zymostenol accumulation (EBP) in EpiSC-derived OPCs
# Assay Comment: GC/MS-based sterol profiling, zymostenol accumulation in EpiSC-derived OPCs
# Type: cell-based, mouse
# Condition: Mus musculus, 24 h, EpiSC-derived OPCs, 24 hr, 8 doses from 0.15 nM to 333 nM; read-out: Mouse Zymostenol GCMS EC50
Scale note: pEC50 = -log10(concentration in M).

Compound	Measured Target	Experimental Endpoint	Recorded Measurement
CC(C)n1nc(-c2cccc(OC(F)F)c2)nc1[C@H]1[C@@H]2C[C@H](N3CCCOCC3)C[C@@H]21	zymostenol accumulation (EBP) in EpiSC-derived OPCs	pEC50	8.55
CC(C)n1nc(-c2cnc(C(F)(F)F)nc2)nc1[C@H]1CC[C@@H](N2CCO[C@H](CF)C2)C1	zymostenol accumulation (EBP) in EpiSC-derived OPCs	pEC50	7.62

Okay, next one:
Look up pEC50: CC(C)n1nc(-c2cnc(C(F)(F)F)nc2)nc1[C@H]1CC[C@@H](N2CCOCC2)C1
7.69

---

# Measured Target: UniProt Q15125
# Sequence (Q15125 whole entry): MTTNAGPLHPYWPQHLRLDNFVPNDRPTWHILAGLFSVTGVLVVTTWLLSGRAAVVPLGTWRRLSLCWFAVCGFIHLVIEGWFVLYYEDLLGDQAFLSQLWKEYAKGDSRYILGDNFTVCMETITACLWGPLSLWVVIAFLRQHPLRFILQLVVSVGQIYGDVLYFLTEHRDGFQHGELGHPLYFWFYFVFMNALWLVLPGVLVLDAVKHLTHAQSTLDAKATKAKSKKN
The following molecules are shown together with reported pKi values.
Scale note: pKi = -log10(concentration in M).

Molecule	Recorded Measurement
CC[C@H]1CN([C@@H]2CC[C@H](c3nc(-c4cncc(F)c4)nn3C(C)C)C2)CCO1	7.39
CCn1nc(-c2cncc(C(F)(F)F)c2)cc1[C@H]1[C@@H]2C[C@@H](N3CCCOCC3)C[C@@H]21	7.90
COCCN1CCN([C@@H]2CC[C@H](c3cc(-c4ccc(C(F)(F)F)nc4)nn3C(C)C)C2)CC1 (single isomer, unassigned)	7.71

Look up pKi: CC(C)n1nc(-c2cnc(C(F)(F)F)nc2)cc1[C@H]1[C@@H]2C[C@H](N3CCOC[C@H]3C)C[C@@H]21
7.82

Repeat with CC(C)n1nc(-c2ccc(C(F)(F)F)nc2)cc1[C@H]1[C@@H]2C[C@@H](N3CCCOCC3)C[C@@H]21
7.37

Repeat with CC(C)n1nc(-c2cnc(C(F)(F)F)nc2)nc1[C@H]1CC[C@@H](N2CCO[C@H](CF)C2)C1
7.05

Repeat with CC(C)n1nc(-c2cccc(C(F)(F)F)c2)cc1[C@H]1[C@@H]2C[C@H](N3CCOCC3)C[C@@H]21
8.16

Repeat with CC[C@@H]1CN([C@@H]2CC[C@H](c3nc(-c4ccc(C(F)(F)F)nc4)nn3C(C)C)C2)CCO1
7.24

Repeat with CC(C)n1nc(-c2cnc(C(F)(F)F)nc2)cc1[C@H]1CC[C@@H](N2CCO[C@H](CF)C2)C1 (single isomer, unassigned)
7.77

Repeat with CC(C)n1nc(-c2cncc(C(F)(F)F)c2)cc1[C@@H]1CC[C@@H](N2CCOCC2)C1 (single isomer, unassigned)
7.13

---

# Tested on: zymostenol accumulation (EBP) in EpiSC-derived OPCs
# Assay Comment: GC/MS-based sterol profiling, zymostenol accumulation in EpiSC-derived OPCs
# Format: cell-based, mouse
# Condition: Mus musculus, 24 h, EpiSC-derived OPCs, 24 hr, 8 doses from 0.15 nM to 333 nM; read-out: Mouse Zymostenol GCMS EC50
For each record, check the reported EC50: if it is below 10 nM write criterion met, else write criterion not met.

Past entries and their recorded results:
Molecule	Measured Target	Answer Label
Cc1ccccc1-c1cc([C@H]2[C@@H]3C[C@@H](N4CCCOCC4)C[C@@H]32)n(C(C)C)n1 (single isomer, unassigned)	zymostenol accumulation (EBP) in EpiSC-derived OPCs	criterion not met
CC(C)n1nc(-c2cnc(F)c(C(F)(F)F)c2)nc1[C@H]1CC[C@H](N2CCOCC2)C1 (single isomer, unassigned)	zymostenol accumulation (EBP) in EpiSC-derived OPCs	criterion met
CC(C)n1nc(-c2cccc(C(F)(F)F)c2)nc1[C@H]1[C@@H]2C[C@H](N3CCOC[C@H]3C)C[C@@H]21 (single isomer, unassigned)	zymostenol accumulation (EBP) in EpiSC-derived OPCs	criterion met
CC(C)n1nc(-c2cncc(C(F)(F)F)c2)nc1[C@H]1CC[C@@H](N2CCOCC2)C1 (single isomer, unassigned)	zymostenol accumulation (EBP) in EpiSC-derived OPCs	criterion not met

Decide: EC50 of CC(C)n1nc(-c2ccc(OC(F)(F)F)cc2)cc1[C@H]1[C@@H]2C[C@H](N3CCCOCC3)C[C@@H]21 strictly below 10 nM?
criterion met
